Measurement Target: β-secretase(BACE) (Homo sapiens, UniProt P56817)
Construct: purchased Panvera
Sequence (P56817 46-501): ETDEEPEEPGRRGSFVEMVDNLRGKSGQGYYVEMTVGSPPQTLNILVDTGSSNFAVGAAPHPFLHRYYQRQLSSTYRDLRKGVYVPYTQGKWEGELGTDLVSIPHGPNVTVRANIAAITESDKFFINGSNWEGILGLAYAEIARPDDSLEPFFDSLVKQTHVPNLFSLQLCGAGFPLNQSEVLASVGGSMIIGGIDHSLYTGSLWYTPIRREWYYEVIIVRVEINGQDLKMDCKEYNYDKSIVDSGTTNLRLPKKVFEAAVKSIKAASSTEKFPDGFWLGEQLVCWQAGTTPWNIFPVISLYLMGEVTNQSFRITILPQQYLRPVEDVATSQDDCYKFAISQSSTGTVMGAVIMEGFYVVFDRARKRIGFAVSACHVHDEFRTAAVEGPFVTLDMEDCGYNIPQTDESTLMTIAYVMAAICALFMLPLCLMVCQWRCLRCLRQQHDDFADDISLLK
Experiment Summary: BACE Assay-1 (MCA-substrate, IC50)
Type: biochemical
Particulars: procedure of Example 158; read-out: IC50 μM (158)
Label key: criterion met means IC50 under 3 µM; criterion not met means IC50 of 3 µM or more.

CN(Cc1ccccc1)C(=O)CCCCN1Cc2cc(C(=O)c3ccccc3)ccc2N=C1N | criterion not met

Now take the following molecule into account.
# input Consider CN(C(=O)CCCCN1Cc2cc(C(=O)c3ccccc3)ccc2N=C1N)C12CC3CC(CC(C3)C1)C2 . Does its IC50 lie strictly below 3 µM?
# output criterion not met
